This collection of values is drawn from BigSolDB 2.1.

conditions: in ethanol, 298.15 K
readoutLabel: solubility (mole fraction)

Give its solubility (mole fraction) value. Item: `NC(=O)c1cccnc1` 0.0444

----------
conditions: in isobutanol, 303.15 K
readoutLabel: solubility (mole fraction)
Number only, please.

Give its solubility (mole fraction) value. Item: `NC(=O)c1cccnc1` 0.0392

----------
conditions: in isobutanol, 288.15 K
readoutLabel: solubility (mole fraction)
Number only, please.

Give its solubility (mole fraction) value. Item: `NC(=O)c1cccnc1` 0.0248

----------
settings: in acetone, 283.15 K
readoutLabel: solubility (mole fraction)
Number only, please.

Give its solubility (mole fraction) value. Item: `NC(=O)c1cccnc1` 0.0116

----------
settings: in n-butyl acetate, 308.15 K
readoutLabel: solubility (mole fraction)

Give its solubility (mole fraction) value. Item: `NC(=O)c1cccnc1` 0.0124

----------
conditions: in n-propanol, 283.15 K
readoutLabel: solubility (mole fraction)
Number only, please.

Give its solubility (mole fraction) value. Item: `NC(=O)c1cccnc1` 0.0219

----------
settings: in ethyl acetate, 303.15 K
readoutLabel: solubility (mole fraction)
Number only, please.

Give its solubility (mole fraction) value. Item: `NC(=O)c1cccnc1` 0.0129

----------
settings: in isopropanol, 293.15 K
readoutLabel: solubility (mole fraction)
Number only, please.

Give its solubility (mole fraction) value. Item: `NC(=O)c1cccnc1` 0.0281

----------
conditions: in ethyl acetate, 283.15 K
readoutLabel: solubility (mole fraction)
Number only, please.

Give its solubility (mole fraction) value. Item: `NC(=O)c1cccnc1` 0.00797

----------
details: in methyl acetate, 298.15 K
readoutLabel: solubility (mole fraction)

Give its solubility (mole fraction) value. Item: `NC(=O)c1cccnc1` 0.0135

----------
conditions: in acetone, 318.15 K
readoutLabel: solubility (mole fraction)
Number only, please.

Give its solubility (mole fraction) value. Item: `NC(=O)c1cccnc1` 0.0392

----------
settings: in methyl acetate, 288.15 K
readoutLabel: solubility (mole fraction)
Number only, please.

Give its solubility (mole fraction) value. Item: `NC(=O)c1cccnc1` 0.0101

----------
conditions: in isobutanol, 323.15 K
readoutLabel: solubility (mole fraction)
Number only, please.

Give its solubility (mole fraction) value. Item: `NC(=O)c1cccnc1` 0.0754

----------
conditions: in n-butanol, 293.15 K
readoutLabel: solubility (mole fraction)
Number only, please.

Give its solubility (mole fraction) value. Item: `NC(=O)c1cccnc1` 0.0315

----------
conditions: in methyl acetate, 283.15 K
readoutLabel: solubility (mole fraction)
Number only, please.

Give its solubility (mole fraction) value. Item: `NC(=O)c1cccnc1` 0.00929

----------
details: in isopropanol, 308.15 K
readoutLabel: solubility (mole fraction)
Number only, please.

Give its solubility (mole fraction) value. Item: `NC(=O)c1cccnc1` 0.048

----------
conditions: in n-butyl acetate, 318.15 K
readoutLabel: solubility (mole fraction)
Number only, please.

Give its solubility (mole fraction) value. Item: `NC(=O)c1cccnc1` 0.0153

----------
conditions: in n-propanol, 318.15 K
readoutLabel: solubility (mole fraction)
Number only, please.

Give its solubility (mole fraction) value. Item: `NC(=O)c1cccnc1` 0.0766

----------
conditions: in ethyl acetate, 293.15 K
readoutLabel: solubility (mole fraction)

Give its solubility (mole fraction) value. Item: `NC(=O)c1cccnc1` 0.01

----------
conditions: in n-butanol, 318.15 K
readoutLabel: solubility (mole fraction)
Number only, please.

Give its solubility (mole fraction) value. Item: `NC(=O)c1cccnc1` 0.0664

----------
conditions: in ethanol, 293.15 K
readoutLabel: solubility (mole fraction)
Number only, please.

Give its solubility (mole fraction) value. Item: `NC(=O)c1cccnc1` 0.0374

----------
conditions: in methanol, 313.15 K
readoutLabel: solubility (mole fraction)

Give its solubility (mole fraction) value. Item: `NC(=O)c1cccnc1` 0.141

----------
settings: in methanol, 318.15 K
readoutLabel: solubility (mole fraction)
Number only, please.

Give its solubility (mole fraction) value. Item: `NC(=O)c1cccnc1` 0.166

----------
conditions: in acetone, 308.15 K
readoutLabel: solubility (mole fraction)

Give its solubility (mole fraction) value. Item: `NC(=O)c1cccnc1` 0.0286

----------
details: in ethanol, 303.15 K
readoutLabel: solubility (mole fraction)
Number only, please.

Give its solubility (mole fraction) value. Item: `NC(=O)c1cccnc1` 0.0537

----------
settings: in isopropanol, 313.15 K
readoutLabel: solubility (mole fraction)
Number only, please.

Give its solubility (mole fraction) value. Item: `NC(=O)c1cccnc1` 0.0573

----------
settings: in ethanol, 313.15 K
readoutLabel: solubility (mole fraction)
Number only, please.

Give its solubility (mole fraction) value. Item: `NC(=O)c1cccnc1` 0.0766

----------
conditions: in n-propanol, 293.15 K
readoutLabel: solubility (mole fraction)

Give its solubility (mole fraction) value. Item: `NC(=O)c1cccnc1` 0.0321

----------
conditions: in n-butyl acetate, 283.15 K
readoutLabel: solubility (mole fraction)
Number only, please.

Give its solubility (mole fraction) value. Item: `NC(=O)c1cccnc1` 0.00936

----------
details: in n-butyl acetate, 288.15 K
readoutLabel: solubility (mole fraction)

Give its solubility (mole fraction) value. Item: `NC(=O)c1cccnc1` 0.00955

----------
details: in isobutanol, 293.15 K
readoutLabel: solubility (mole fraction)
Number only, please.

Give its solubility (mole fraction) value. Item: `NC(=O)c1cccnc1` 0.0292

----------
conditions: in n-butyl acetate, 313.15 K
readoutLabel: solubility (mole fraction)
Number only, please.

Give its solubility (mole fraction) value. Item: `NC(=O)c1cccnc1` 0.0135

----------
details: in n-propanol, 313.15 K
readoutLabel: solubility (mole fraction)
Number only, please.

Give its solubility (mole fraction) value. Item: `NC(=O)c1cccnc1` 0.0647

----------
conditions: in ethanol, 283.15 K
readoutLabel: solubility (mole fraction)
Number only, please.

Give its solubility (mole fraction) value. Item: `NC(=O)c1cccnc1` 0.0263

----------
conditions: in n-butanol, 303.15 K
readoutLabel: solubility (mole fraction)
Number only, please.

Give its solubility (mole fraction) value. Item: `NC(=O)c1cccnc1` 0.0416

----------
conditions: in methyl acetate, 318.15 K
readoutLabel: solubility (mole fraction)
Number only, please.

Give its solubility (mole fraction) value. Item: `NC(=O)c1cccnc1` 0.0235

----------
conditions: in n-propanol, 303.15 K
readoutLabel: solubility (mole fraction)
Number only, please.

Give its solubility (mole fraction) value. Item: `NC(=O)c1cccnc1` 0.045

----------
settings: in ethyl acetate, 288.15 K
readoutLabel: solubility (mole fraction)
Number only, please.

Give its solubility (mole fraction) value. Item: `NC(=O)c1cccnc1` 0.00871

----------
conditions: in n-propanol, 323.15 K
readoutLabel: solubility (mole fraction)
Number only, please.

Give its solubility (mole fraction) value. Item: `NC(=O)c1cccnc1` 0.0924

----------
conditions: in n-propanol, 298.15 K
readoutLabel: solubility (mole fraction)

Give its solubility (mole fraction) value. Item: `NC(=O)c1cccnc1` 0.0378

----------
settings: in ethyl acetate, 298.15 K
readoutLabel: solubility (mole fraction)

Give its solubility (mole fraction) value. Item: `NC(=O)c1cccnc1` 0.0112

----------
settings: in ethanol, 323.15 K
readoutLabel: solubility (mole fraction)
Number only, please.

Give its solubility (mole fraction) value. Item: `NC(=O)c1cccnc1` 0.11

----------
conditions: in ethyl acetate, 313.15 K
readoutLabel: solubility (mole fraction)
Number only, please.

Give its solubility (mole fraction) value. Item: `NC(=O)c1cccnc1` 0.0163

----------
conditions: in acetone, 288.15 K
readoutLabel: solubility (mole fraction)
Number only, please.

Give its solubility (mole fraction) value. Item: `NC(=O)c1cccnc1` 0.0134

----------
settings: in n-butanol, 288.15 K
readoutLabel: solubility (mole fraction)
Number only, please.

Give its solubility (mole fraction) value. Item: `NC(=O)c1cccnc1` 0.0274

----------
details: in ethanol, 318.15 K
readoutLabel: solubility (mole fraction)
Number only, please.

Give its solubility (mole fraction) value. Item: `NC(=O)c1cccnc1` 0.0912

----------
details: in n-propanol, 288.15 K
readoutLabel: solubility (mole fraction)
Number only, please.

Give its solubility (mole fraction) value. Item: `NC(=O)c1cccnc1` 0.0266

----------
details: in methyl acetate, 293.15 K
readoutLabel: solubility (mole fraction)
Number only, please.

Give its solubility (mole fraction) value. Item: `NC(=O)c1cccnc1` 0.0117

----------
conditions: in isobutanol, 318.15 K
readoutLabel: solubility (mole fraction)
Number only, please.

Give its solubility (mole fraction) value. Item: `NC(=O)c1cccnc1` 0.0637

----------
conditions: in acetone, 303.15 K
readoutLabel: solubility (mole fraction)
Number only, please.

Give its solubility (mole fraction) value. Item: `NC(=O)c1cccnc1` 0.0234

----------
details: in n-butanol, 323.15 K
readoutLabel: solubility (mole fraction)
Number only, please.

Give its solubility (mole fraction) value. Item: `NC(=O)c1cccnc1` 0.0774

----------
settings: in ethyl acetate, 318.15 K
readoutLabel: solubility (mole fraction)
Number only, please.

Give its solubility (mole fraction) value. Item: `NC(=O)c1cccnc1` 0.0182

----------
conditions: in methanol, 288.15 K
readoutLabel: solubility (mole fraction)
Number only, please.

Give its solubility (mole fraction) value. Item: `NC(=O)c1cccnc1` 0.0643
